- Tested on: BMP-2 promoter
- Protocol Text: ABA assay: BMP-2 promoter-luciferase reporter in 2T3-BMP-2-LUC osteoblast cells
- Type: cell-based, mouse
- Measurement Conditions: Experiment 1; 100 μg/ml
Measured Parameter: % 59-0008 Response (%)

* CC[C@H](C)C(=O)O[C@H]1C[C@H](O)C=C2C=C[C@H](C)[C@H](CC[C@@H](O)C[C@@H](O)CC(=O)O)[C@H]21 | 7.620
* CCC(C)(C)C(=O)O[C@H]1C[C@@H](C)C=C2C=C[C@H](C)[C@H](CC[C@@H](O)C[C@@H](O)CC(=O)O)[C@H]21 [Hydrolyzed simvastatin, hydrolyzed simvastatin] | −15.230
* CC[C@H](C)C(=O)O[C@H]1CCC=C2C=C[C@H](C)[C@H](CC[C@@H]3C[C@@H](O)CC(=O)O3)[C@H]21 | 12.460
* CCC(C)(C)C(=O)O[C@H]1C[C@@H](C)C=C2C=C[C@H](C)[C@H](CC[C@@H]3C[C@@H](O)CC(=O)O3)[C@H]21 | −23.010

====

compounds and their reported % 59-0008 Response
- Test system: BMP-2 promoter
- Protocol Text: ABA assay: BMP-2 promoter-luciferase reporter in 2T3-BMP-2-LUC osteoblast cells
- Type: cell-based, mouse
- Measurement Conditions: Experiment 1; 200 μg/ml
Measured Parameter: % 59-0008 Response (%)

- CC(C)n1c(/C=C/C(O)CC(O)CC(=O)O)c(-c2ccc(F)cc2)c2ccccc21 (stereo not drawn): −22.700
- CC[C@H](C)C(=O)O[C@H]1C[C@@H](C)C=C2C=C[C@H](C)[C@H](CC[C@@H]3C[C@@H](O)CC(=O)O3)[C@H]21: −22.650
- CCC(C)(C)C(=O)O[C@H]1C[C@@H](C)C=C2C=C[C@H](C)[C@H](CC[C@@H](O)C[C@@H](O)CC(=O)O)[C@H]21 [Hydrolyzed simvastatin, hydrolyzed simvastatin]: −15.140

====

- Test system: BMP-2 promoter
- Protocol Text: ABA assay: BMP-2 promoter-luciferase reporter in 2T3-BMP-2-LUC osteoblast cells
- Format: cell-based, mouse
- Measurement Conditions: Experiment 1; 3.125 μg/ml
Measured Parameter: % 59-0008 Response (%)

* CCC(C)(C)C(=O)O[C@H]1C[C@@H](C)C=C2C=C[C@H](C)[C@H](CC[C@@H]3C[C@@H](O)CC(=O)O3)[C@H]21 | 135.610
* CC[C@H](C)C(=O)O[C@H]1C[C@H](O)C=C2C=C[C@H](C)[C@H](CC[C@@H](O)C[C@@H](O)CC(=O)O)[C@H]21 | 0.380
* CC[C@H](C)C(=O)O[C@H]1C[C@@H](C)C=C2C=C[C@H](C)[C@H](CC[C@@H]3C[C@@H](O)CC(=O)O3)[C@H]21 | 111.730

====

- Tested on: BMP-2 promoter
- Protocol Text: ABA assay: BMP-2 promoter-luciferase reporter in 2T3-BMP-2-LUC osteoblast cells
- Type: cell-based, mouse
- Measurement Conditions: Experiment 1; 3.125 μg/ml
compounds and their reported % 59-0008 Response
Measured Parameter: % 59-0008 Response (%)

• CC(C)n1c(/C=C/C(O)CC(O)CC(=O)O)c(-c2ccc(F)cc2)c2ccccc21 (stereo not drawn) [Fluvastatin, fluvastatin] = 173.280
• CCC(C)(C)C(=O)O[C@H]1C[C@@H](C)C=C2C=C[C@H](C)[C@H](CC[C@@H](O)C[C@@H](O)CC(=O)O)[C@H]21 [Hydrolyzed simvastatin, hydrolyzed simvastatin] = 75.860
• CC[C@H](C)C(=O)O[C@H]1CCC=C2C=C[C@H](C)[C@H](CC[C@@H]3C[C@@H](O)CC(=O)O3)[C@H]21 [Mevastatin, mevastatin] = 99.670
